Measured TGI of individual entries
- Tested on: SK-MEL-28 melanoma
- EXPERIMENTAL DETAILS: NCI tumour cell line growth inhibition, 48 h
READOUT TYPE: TGI

INSERT INTO measurements (molecule, value_measured) VALUES
  ('O=C1C2c3[nH]c4ccccc4c3C3CCCCC3C2C(=O)N1c1ccccc1 (stereo unspecified)', '> 100 µM'),
  ('COc1cc(C(=O)N(C)N(C)C)cc(OC)c1OC', '> 10 µM'),
  ('O=C1C(Cl)C2(CC(/C=C/c3cccs3)=NN2c2cccc(S(=O)(=O)O)c2)N1c1nc2ccccc2s1 (stereo unspecified)', '> 100 µM'),
  ('NC(=O)c1cn(C2OC(CO)C(O)C2O)c(=O)[nH]c1=O (stereo unspecified)', '> 100 µM'),
  ('COC(=O)/C=C1/SC(=Nc2ccc(F)cc2)N(CCc2c[nH]c3ccc(O)cc23)C1=O', '> 100 µM'),
  ('C[CH2][Sn]([CH2]C)([O]C(=O)c1c(F)cccc1F)[O][Sn]([CH2]C)([CH2]C)[O]C(=O)c1c(F)cccc1F', '29 µM'),
  ('COc1cc(C2Oc3cc(-c4oc5cc(O)cc(O)c5c(=O)c4O)ccc3OC2CO)ccc1O (stereo unspecified)', '62.3 µM'),
  ('C=CCCCCNC(=O)C[C@@H]1C2=C(CC[C@H]1O[Si](C)(C)C(C)(C)C)N1C(=O)CCC/C=C\C1C2 (stereo partly specified)', '29.7 µM'),
  ('COc1ccc(OC)c(C#N)c1C#N (tested in a mixture with another compound)', '> 100 µM'),
  ('N#CC(C#N)=Cc1c[nH]c(=O)[nH]c1=O', '> 100 µM'),
  ('O=C(NC(Cc1ccc(I)cc1)C(=O)O)c1cccc(Br)c1 (stereo unspecified)', '> 100 µM'),
  ('CC(=O)Nc1ccc(-c2nnc(SCC(=O)Nc3ccccc3)o2)cc1', '> 100 µM'),
  ('O=C(Cc1ccc(F)cc1)NC1=C(Cl)C(=O)c2ccccc2C1=O', '11.6 µM'),
  ('Cc1ccccc1NC(=O)/C(=N/NC(=O)CC#N)C1C(=O)N(c2ccccc2)N=C1N (stereo unspecified)', '> 100 µM'),
  ('COc1ccc(/C=C/C2C(C#N)=C(N)OC3=C2C(=O)CCC3)cc1 (stereo unspecified)', '35.3 µM'),
  ('c1ccc2c(c1)Oc1cccc3cccc-2c13', '> 100 µM'),
  ('COC(=O)[C@@]12CN(C)[C@@H](C(C)(C)C)N1C(=O)OC2c1ccccc1 (stereo partly specified)', '> 100 µM'),
  ('CSC1N=CNc2c1sc(=S)n2-c1ccccc1 (stereo unspecified)', '> 100 µM'),
  ('CC1OC(Oc2c(-c3cc(O)c(O)c(O)c3)oc3cc(O)cc(O)c3c2=O)C(O)C(O)C1O (stereo unspecified)', '> 100 µM'),
  ('COC(=O)C(Cc1ccc(OC)cc1O)NC(=O)OC(C)(C)C (stereo unspecified)', '> 100 µM'),
  ('CC(C)Oc1ccc(-c2nn([C@@H](C)c3oc4ccc(F)cc4c(=O)c3-c3cccc(F)c3)c3ncnc(N)c23)cc1F', '> 100 µM');

====

Measured TGI of individual entries
- Test system: NCI-H226 lung
- EXPERIMENTAL DETAILS: NCI tumour cell line growth inhibition, 48 h
READOUT TYPE: TGI

INSERT INTO measurements (molecule, value_measured) VALUES
  ('Cc1c(C(=O)O)n2c(C)nnc2c2ccccc12', '> 100 µM'),
  ('CC(=O)c1c(Nc2cccc(F)c2)[nH]c2c(Cl)cc(Cl)c(Cl)c2c1=O', '2.93 µM'),
  ('COc1cc2nn(-c3ccccc3)nc2c2nonc12', '> 100 µM'),
  ('N#CC1CCCC2SC(F)(F)C(F)(F)C12 (stereo unspecified)', '> 100 µM'),
  ('N#CNCC(COCc1ccccc1)c1ccccc1 (stereo unspecified)', '> 100 µM'),
  ('COc1ccc(C(=O)c2sc3nc4c(cc3c2N)CCCC4)cc1OC', '23 µM');
